# System: JSC-1 (B-Cell Non-Hodgkin's Lymphoma);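 further: after 72 h of two-drug dosing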
# Protocol Details: Bliss excess, mean over the matrix (fraction); higher = more synergy
Quick rule: Bliss excess of at least 0.02 means 1, below that means -1.

[[record]]
compound = "COc1nnc2ccc(N3CCC(c4ccc(OCCN5CCN(C)C(=O)[C@H]5C)cc4)CC3)nn12 [AZD5153] + Cn1cnc2c(F)c(Nc3ccc(Br)cc3Cl)c(C(=O)NOCCO)cc21 [Selumetinib] (first compound max 1 µM, 7x7, partner max 10 µM)"
group_label = -1

[[record]]
compound = "CN(CCO)CC[C@H](CSc1ccccc1)Nc1ccc(S(=O)(=O)NC(=O)c2ccc(N3CCC([C@@H](O)c4ccccc4-c4ccc(Cl)cc4)CC3)cc2)cc1S(=O)(=O)C(F)(F)F [AZD4320] + CN(C)CCCOc1ccc(-c2ccc3ncc4c(c3c2)n(C2CCOCC2)c(=O)n4C)cn1 [AZD0156] (first compound max 1 µM, 7x7, partner max 1 µM)"
group_label = -1

[[record]]
compound = "Cc1c2c(nn1C)CSCc1cc(n(C)n1)CSc1cc(c3ccccc3c1)OCCCc1c(C(=O)O)n(C)c3c-2c(Cl)ccc13 [AZD5991] + Cc1cc2ncnn2cc1Nc1ncc2c(n1)n(C1CCOCC1)c(=O)n2C [AZD7648] (first compound max 1 µM, 7x7, partner max 10 µM)"
group_label = -1


Exam item: Would you say COc1cccc(OCCCN)c1-c1cc(Nc2cnc(C#N)cn2)n[nH]1 [Prexasertib] + C=CCn1c(=O)c2cnc(Nc3ccc(N4CCN(C)CC4)cc3)nc2n1-c1cccc(C(C)(C)O)n1 [AZD1775] (first compound max 1 µM, partner max 1 µM) shows Bliss excess at minimum 0.02?
Marked response: 1

Exam item: Would you say NC1(C(=O)N[C@@H](CCO)c2ccc(Cl)cc2)CCN(c2ncnc3[nH]ccc23)CC1 [Capivasertib] + CC(C)n1c(=O)n(C)c2cnc3cc(F)c(-c4ccc(OCCCN5CCCCC5)nc4)cc3c21 [AZD1390] (first compound max 10 µM, 7x7, partner max 0.3 µM) shows Bliss excess at minimum 0.02?
Marked response: -1

Exam item: Would you say CC(=O)c1c(C)c2cnc(Nc3ccc(N4CCNCC4)cn3)nc2n(C2CCCC2)c1=O [Palbociclib] + Cn1cnc2c(F)c(Nc3ccc(Br)cc3Cl)c(C(=O)NOCCO)cc21 [Selumetinib] (first compound max 10 µM, 7x7, partner max 10 µM) shows Bliss excess at minimum 0.02?
Marked response: 1

Exam item: Would you say CC1(C)CCC(CN2CCN(c3ccc(C(=O)NS(=O)(=O)c4ccc(NCC5CCOCC5)c([N+](=O)[O-])c4)c(Oc4cnc5[nH]ccc5c4)c3)CC2)=C(c2ccc(Cl)cc2)C1 [Venetoclax] + C=CCn1c(=O)c2cnc(Nc3ccc(N4CCN(C)CC4)cc3)nc2n1-c1cccc(C(C)(C)O)n1 [AZD1775] (first compound max 1 µM, partner max 1 µM) shows Bliss excess at minimum 0.02?
Marked response: -1

Exam item: Would you say CC1(C)CCC(CN2CCN(c3ccc(C(=O)NS(=O)(=O)c4ccc(NCC5CCOCC5)c([N+](=O)[O-])c4)c(Oc4cnc5[nH]ccc5c4)c3)CC2)=C(c2ccc(Cl)cc2)C1 [Venetoclax] + CCN(CCO)CCCOc1ccc2c(Nc3cc(CC(=O)Nc4cccc(F)c4)[nH]n3)ncnc2c1 [AZD2811] (first compound max 1 µM, 7x7, partner max 1 µM) shows Bliss excess at minimum 0.02?
Marked response: 1

====

# Test system: KARPAS-422 (B-Cell Non-Hodgkin's Lymphoma)
# Protocol Details: combination Emax (second highest fraction inhibited in the dose matrix, 72 h); higher = more inhibition; extreme values may be limits of the assay
Each entry below carries its reported combination Emax.
Keep it simple and answer with nothing but the number.

Solved entries:
[[record]]
molecule = "O=C(c1cc(Cc2n[nH]c(=O)c3ccccc23)ccc1F)N1CCN(C(=O)C2CC2)CC1 [Olaparib] + CC1(C)CCC(CN2CCN(c3ccc(C(=O)NS(=O)(=O)c4ccc(NCC5CCOCC5)c([N+](=O)[O-])c4)c(Oc4cnc5[nH]ccc5c4)c3)CC2)=C(c2ccc(Cl)cc2)C1 [Venetoclax] (first compound max 10 µM, 7x7, partner max 1 µM)"
result_value = 0.611

[[record]]
molecule = "CC1(C)CCC(CN2CCN(c3ccc(C(=O)NS(=O)(=O)c4ccc(NCC5CCOCC5)c([N+](=O)[O-])c4)c(Oc4cnc5[nH]ccc5c4)c3)CC2)=C(c2ccc(Cl)cc2)C1 [Venetoclax] + CN(C)CCCOc1ccc(-c2ccc3ncc4c(c3c2)n(C2CCOCC2)c(=O)n4C)cn1 [AZD0156] (first compound max 1 µM, 7x7, partner max 1 µM)"
result_value = 0.873

[[record]]
molecule = "CC1(C)CCC(CN2CCN(c3ccc(C(=O)NS(=O)(=O)c4ccc(NCC5CCOCC5)c([N+](=O)[O-])c4)c(Oc4cnc5[nH]ccc5c4)c3)CC2)=C(c2ccc(Cl)cc2)C1 [Venetoclax] + C=CCn1c(=O)c2cnc(Nc3ccc(N4CCN(C)CC4)cc3)nc2n1-c1cccc(C(C)(C)O)n1 [AZD1775] (first compound max 1 µM, partner max 1 µM)"
result_value = 0.995


# ---- query molecule ----
Exam item: Supply combination Emax value. Item: C[C@@H](Oc1cc(-c2cnn(C3CCNCC3)c2)cnc1N)c1c(Cl)ccc(F)c1Cl [Crizotinib] + CC1=C(C(=CC=C1)Cl)NC(=O)C2=CN=C(S2)NC3=CC(=NC(=N3)C)N4CCN(CC4)CCO [Dasatinib] (first compound max 10 µM, 7x7, partner max 2 µM)
Marked response: 0.886

====

# Tested on: U-698-M
# Experimental Setup: B-Cell Non-Hodgkin's Lymphoma, max 10 µM
Measure Name: IC50, cell viability 72 h (µM)
Numbers only here, please. The scale is µM.

[[record]]
molecule = "N#Cc1cnc(Nc2cc(NC[C@H]3CNCCO3)c(C(F)(F)F)cn2)cn1 [SRA737]"
result_value = 2.86

[[record]]
molecule = "COc1cc([C@@H]2c3cc4c(cc3[C@@H](O[C@@H]3O[C@@H]5CO[C@@H](C)O[C@H]5[C@H](O)[C@H]3O)[C@H]3COC(=O)[C@H]23)OCO4)cc(OC)c1O [Etoposide]"
result_value = 4.93

[[record]]
molecule = "NC1(C(=O)N[C@@H](CCO)c2ccc(Cl)cc2)CCN(c2ncnc3[nH]ccc23)CC1 [AZD5363]"
result_value = 8.27


# ---- query molecule ----
Exam item: State measured IC50, cell viability 72 h of the molecule C[C@@H]1COCCN1c1cc(C2([S@](C)(=N)=O)CC2)nc(-c2ccnc3[nH]ccc23)n1 [AZD6738] with U-698-M.
Marked response: 2.21

====

# System: KARPAS-422 (B-Cell Non-Hodgkin's Lymphoma)
# Protocol Details: combination Emax (second highest fraction inhibited in the dose matrix, 72 h); higher = more inhibition; extreme values may be limits of the assay
Quick rule: combination Emax of at least 0.9 means yes, below that means no.

Please review the entries below; each comes with its answer.
[[record]]
compound = "CCc1c2c(nc3ccc(O)cc13)-c1cc3c(c(=O)n1C2)COC(=O)[C@]3(O)CC [SN-38] + CN(C)CCCOc1ccc(-c2ccc3ncc4c(c3c2)n(C2CCOCC2)c(=O)n4C)cn1 [AZD0156] (first compound max 0.3 µM, 7x7, partner max 1 µM)"
group_label = "yes"

[[record]]
compound = "Cc1c2c(nn1C)CSCc1cc(n(C)n1)CSc1cc(c3ccccc3c1)OCCCc1c(C(=O)O)n(C)c3c-2c(Cl)ccc13 [AZD5991] + C1CN(CCC1(C(=O)N[C@@H](CCO)C2=CC=C(C=C2)Cl)N)C3=NC=NC4=C3C=CN4 [Capivasertib] (first compound max 1 µM, 7x7, partner max 3 µM)"
group_label = "yes"

[[record]]
compound = "CCc1c2c(nc3ccc(O)cc13)-c1cc3c(c(=O)n1C2)COC(=O)[C@]3(O)CC [SN-38] + O=C(c1cc(Cc2n[nH]c(=O)c3ccccc23)ccc1F)N1CCN(C(=O)C2CC2)CC1 [Olaparib] (first compound max 0.3 µM, 7x7, partner max 10 µM)"
group_label = "yes"


# evaluate next
Exam item: Would you say O=C(c1cc(Cc2n[nH]c(=O)c3ccccc23)ccc1F)N1CCN(C(=O)C2CC2)CC1 [Olaparib] + Cc1c2c(nn1C)CSCc1cc(n(C)n1)CSc1cc(c3ccccc3c1)OCCCc1c(C(=O)O)n(C)c3c-2c(Cl)ccc13 [AZD5991] (first compound max 10 µM, 7x7, partner max 1 µM) shows combination Emax at minimum 0.9?
Marked response: yes

====

Each entry below carries its reported combination Emax.
# Tested on: A3-KAW (B-Cell Non-Hodgkin's Lymphoma)
# Protocol Details: combination Emax (second highest fraction inhibited in the dose matrix, 72 h); higher = more inhibition; extreme values may be limits of the assay
Keep it simple and answer with nothing but the number.

Solved entries:
[[record]]
compound = "COc1cccc(OCCCN)c1-c1cc(Nc2cnc(C#N)cn2)n[nH]1 [Prexasertib] + Cc1cc2ncnn2cc1Nc1ncc2c(n1)n(C1CCOCC1)c(=O)n2C [AZD7648] (first compound max 1 µM, 7x7, partner max 10 µM)"
result_value = 1

[[record]]
compound = "COc1nnc2ccc(N3CCC(c4ccc(OCCN5CCN(C)C(=O)[C@H]5C)cc4)CC3)nn12 [AZD5153] + CC1(C)CCC(CN2CCN(c3ccc(C(=O)NS(=O)(=O)c4ccc(NCC5CCOCC5)c([N+](=O)[O-])c4)c(Oc4cnc5[nH]ccc5c4)c3)CC2)=C(c2ccc(Cl)cc2)C1 [Venetoclax] (first compound max 1 µM, 7x7, partner max 1 µM)"
result_value = 1

[[record]]
compound = "Cn1cnc2c(F)c(Nc3ccc(Br)cc3Cl)c(C(=O)NOCCO)cc21 [Selumetinib] + CC(C)n1c(=O)n(C)c2cnc3cc(F)c(-c4ccc(OCCCN5CCCCC5)nc4)cc3c21 [AZD1390] (first compound max 10 µM, 7x7, partner max 0.3 µM)"
result_value = 0.408

[[record]]
compound = "CC1(C)CCC(CN2CCN(c3ccc(C(=O)NS(=O)(=O)c4ccc(NCC5CCOCC5)c([N+](=O)[O-])c4)c(Oc4cnc5[nH]ccc5c4)c3)CC2)=C(c2ccc(Cl)cc2)C1 [Venetoclax] + Cn1cnc2c(F)c(Nc3ccc(Br)cc3Cl)c(C(=O)NOCCO)cc21 [Selumetinib] (first compound max 1 µM, 7x7, partner max 3 µM)"
result_value = 0.216

[[record]]
compound = "COc1nnc2ccc(N3CCC(c4ccc(OCCN5CCN(C)C(=O)[C@H]5C)cc4)CC3)nn12 [AZD5153] + C[C@@H]1COCCN1C2=NC(=NC(=C2)C3(CC3)[S@](=N)(=O)C)C4=C5C=CNC5=NC=C4 [AZD6738] (first compound max 1 µM, 7x7, partner max 10 µM)"
result_value = 1

[[record]]
compound = "CN(CCO)CC[C@H](CSc1ccccc1)Nc1ccc(S(=O)(=O)NC(=O)c2ccc(N3CCC([C@@H](O)c4ccccc4-c4ccc(Cl)cc4)CC3)cc2)cc1S(=O)(=O)C(F)(F)F [AZD4320] + Cc1cc2ncnn2cc1Nc1ncc2c(n1)n(C1CCOCC1)c(=O)n2C [AZD7648] (first compound max 1 µM, 7x7, partner max 10 µM)"
result_value = 0.344


Exam item: Supply combination Emax value. Item: COc1nnc2ccc(N3CCC(c4ccc(OCCN5CCN(C)C(=O)[C@H]5C)cc4)CC3)nn12 [AZD5153] + C=CCn1c(=O)c2cnc(Nc3ccc(N4CCN(C)CC4)cc3)nc2n1-c1cccc(C(C)(C)O)n1 [AZD1775] (first compound max 1 µM, partner max 1 µM)
Marked response: 1

Exam item: Supply combination Emax value. Item: Cc1cc2ncnn2cc1Nc1ncc2c(n1)n(C1CCOCC1)c(=O)n2C [AZD7648] + C[C@@H]1COCCN1C2=NC(=NC(=C2)C3(CC3)[S@](=N)(=O)C)C4=C5C=CNC5=NC=C4 [AZD6738] (first compound max 10 µM, 7x7, partner max 10 µM)
Marked response: 0.969

Exam item: Supply combination Emax value. Item: CN(CCO)CC[C@H](CSc1ccccc1)Nc1ccc(S(=O)(=O)NC(=O)c2ccc(N3CCC([C@@H](O)c4ccccc4-c4ccc(Cl)cc4)CC3)cc2)cc1S(=O)(=O)C(F)(F)F [AZD4320] + C[C@@H]1COCCN1C2=NC(=NC(=C2)C3(CC3)[S@](=N)(=O)C)C4=C5C=CNC5=NC=C4 [AZD6738] (first compound max 1 µM, 7x7, partner max 10 µM)
Marked response: 0.986

Exam item: Supply combination Emax value. Item: Cn1cnc2c(F)c(Nc3ccc(Br)cc3Cl)c(C(=O)NOCCO)cc21 [Selumetinib] + C[C@@H]1COCCN1C2=NC(=NC(=C2)C3(CC3)[S@](=N)(=O)C)C4=C5C=CNC5=NC=C4 [AZD6738] (first compound max 10 µM, 7x7, partner max 10 µM)
Marked response: 1

Exam item: Supply combination Emax value. Item: CC(=O)c1c(C)c2cnc(Nc3ccc(N4CCNCC4)cn3)nc2n(C2CCCC2)c1=O [Palbociclib] + CC1(C)CCC(CN2CCN(c3ccc(C(=O)NS(=O)(=O)c4ccc(NCC5CCOCC5)c([N+](=O)[O-])c4)c(Oc4cnc5[nH]ccc5c4)c3)CC2)=C(c2ccc(Cl)cc2)C1 [Venetoclax] (first compound max 10 µM, 7x7, partner max 1 µM)
Marked response: 0.826

Exam item: Supply combination Emax value. Item: Cc1c2c(nn1C)CSCc1cc(n(C)n1)CSc1cc(c3ccccc3c1)OCCCc1c(C(=O)O)n(C)c3c-2c(Cl)ccc13 [AZD5991] + CC1(C)CCC(CN2CCN(c3ccc(C(=O)NS(=O)(=O)c4ccc(NCC5CCOCC5)c([N+](=O)[O-])c4)c(Oc4cnc5[nH]ccc5c4)c3)CC2)=C(c2ccc(Cl)cc2)C1 [Venetoclax] (first compound max 1 µM, 7x7, partner max 1 µM)
Marked response: 1

Exam item: Supply combination Emax value. Item: NC1(C(=O)N[C@@H](CCO)c2ccc(Cl)cc2)CCN(c2ncnc3[nH]ccc23)CC1 [Capivasertib] + CCN(CCO)CCCOc1ccc2c(Nc3cc(CC(=O)Nc4cccc(F)c4)[nH]n3)ncnc2c1 [AZD2811] (first compound max 10 µM, 7x7, partner max 1 µM)
Marked response: 0.674

# credit: the supplement of paper PMC11061612
